apparent KD of MS2 coat protein: recorded values
# System: MS2 coat protein
# assayName: apparent KD of MS2 coat protein; higher = weaker reporter binding
# conditionInfo: Eterna round: R107; input ligand: tryptophan 2.4 mM
Write it as a number; the unit nM goes unstated.

AUCGUACCUGAGGAUACCAGCAUGUGAUCAUAACAUGAGGAUCACCCAUGUAAUCAGUGAUGCCCUUGGCAGCUUAGUCGAUACA [Same State - Theophylline B (Freestyle 7)]; 58.3

In: Tell me apparent KD of MS2 coat protein reported for UGGUACAUGGCGGCCGCCACUUCACGUAAAAUAAAAACUUGAGGAUCACCCAAGUAAUAAGUUGGGAGGACCGGGUCAUGUACCU
Out: 14

In: Give the value of apparent KD of MS2 coat protein reported for the following: AAUAAGUAUCUGCUAGGUGAUCCAGCAGAUACCAGCUAGGAAACUAGCCCUUGGCAGCUGCAACAUGAGGAUCACCCAUGUAAUA [(T)'-(M)'-(T1)-(T2)-(M1)-(M2)_Design3]
Out: 407

In: Check the records and state apparent KD of MS2 coat protein for AAUAACAUGAGGAUCACCCAUGUAAAAGAUACCAGAGUGAUGAUCCUCCCUUGGCAGCUUAAAACGCUAUUGAUUACAAUAGCGA [Mat - Same State Theophlline A - Mod of Eli - D4]
Out: 45.3

In: For the sequence GAUUACAUGAGGAUCACCCAUGUAACUGAAGGAGCGGUAAUAAAGCCAGGUAGGUCGCAGAACAACAUGUGGUUCAUCCAUGUAA [#14 Exclusion - Arginine A] , give its measured apparent KD of MS2 coat protein value.
Out: 21.3

====

Listed sequences paired with reported apparent KD of MS2 coat protein
# Tested on: MS2 coat protein
# assayName: apparent KD of MS2 coat protein; designed switch direction (-1 OFF switch, 1 ON switch): -1; higher = weaker reporter binding
# conditionInfo: Eterna round: R95; input ligand: none
Entry rule: numbers only, all in nM.

AAACACUUAGGAUAUACAUGAGGAUCACCCAUGUCAGACAACGACUACACAAAGUCAUGUAGAAGGAAGUCAAG [Islarele] (puzzle: Exclusion 3); 26

In: Determine its reported apparent KD of MS2 coat protein: AGAAAGCAAGGAUAUACAAGGAAACGACGGAAAGUAGAGAGACAUGAGGAUCACCCAUGUAGAAGGUGCGAGAA [JR_Exclu2_Sub032] (puzzle: Exclusion 2)
Out: 26.5

In: Tell me apparent KD of MS2 coat protein reported for GAAUAGGCAGGAUAUACAUGAGGAUCACCCAUGUGCAAGCGAAAGGUACGUGAACAACGUAGAAGGGCCUAAAC [ChP 13.04.2015 #10] (puzzle: Exclusion 3)
Out: 13.8

====

The entries below are paired with their reported apparent KD of MS2 coat protein.
# Tested on: MS2 coat protein
# assayName: apparent KD of MS2 coat protein; designed switch direction (-1 OFF switch, 1 ON switch): 1; higher = weaker reporter binding
# conditionInfo: input ligand: microRNA oligo, concentration not stated
Number in nM, nothing else.

Field: example entries. Status: answers known.
AACAAUCUAUCUGAGGAUAUCAUGUCAAAGACAUGAGGAUCACCCAUGUACCAGGAAACUGGAUAUGAGAAGGCAGAUAGAUUGA [SS2: 1119] (Eterna round: R96, puzzle: Same State 2); 80
UUAAUGAUGAUAGGAUAUACAUGAGGAAUUCUCGUAGAAGGAUCAUGACAUGAGGAUCACCCAUGUAACGCUCCGUAGAGCGUA [JL SSNG1 1.15] (Eterna round: R96, puzzle: Same State NG 1); 385

Attention now turns to another entry.
In: Determine from records and report apparent KD of MS2 coat protein for GCUGCAAUUAACGCCUACAUGAGGAUCACCCAUGUAUGUAGGCAGGAUAUCGUUUGCUUUGCAAACGAGAAGGGCCGUAGUAGC [JL SSNG3 1.12] (Eterna round: R96, puzzle: Same State NG 3)
Out: 37.6

====

# Tested on: MS2 coat protein
# assayName: apparent KD of MS2 coat protein; designed switch direction (-1 OFF switch, 1 ON switch): 1; higher = weaker reporter binding
# conditionInfo: Eterna round: R95; input ligand: microRNA oligo, concentration not stated
Reported apparent KD of MS2 coat protein is given for each of the following sequences.
API: value field is a number in nM; no unit string.

Recorded results for 5 sequences are shown here.
UUAUAACAUGAGGAUCACCCAUGUCAACAAAGUCGAGGAUAUGGGCAAUUAUUAUAAGAACCAGAAGGCGAAUAUU [Mat - Same State 1 - Mod of UCT - D32] (puzzle: Same State 1); 342
UACAAUCUAUCUGAGGAUAUCAUGAAGAAAACAUGAGGAUCACCCAUGUGCAGGAUAACUGCAAAUGAGAAGGCAGAUAGAUUGU [Mat - Same State 2 - Mod - D5] (puzzle: Same State 2); 18.5
AUUUAACAAGCUUUUUGCUCGUCUUAUAAACAUGAGGAUCACCCAUGUAAUAGCGUGAGAGUAAUUAUAUUAAUUAU [JMF 101] (puzzle: Sensor for hsa-mir-208a); 36
UCUUGGUUUUUGCUCGUUUUUUGUGUUGAACAUGAGGAUCACCCAUGUAUUGUACAAUCCAGUUUGAUAAUGGUCCA [Mod of one of JR's submissions] (puzzle: Sensor for hsa-mir-208a); 77.6
GUAGAUGUAGAGGAGGAUAUUCAAUAGAGAACAUGAGGAUCACCCAUGUAAGAGAGAGAUGAUGGGAAGAAGGCUUAGAGAGAUG [Altered State 2-1 - Jieux - Same State 2] (puzzle: Same State 2); 76.6

In: Please supply the value of reported apparent KD of MS2 coat protein for the item GUAGAAGAACUAGAGGAUAUCCGAGUGGUAACAUGAGGAUCACCCAUGUGAUGAAAGGAACAUGAGGAGAAGGCUAGAAUGAAUG [Mat - Same State 2 - Mod of JL - D83] (puzzle: Same State 2)
Out: 45.7

In: Annotate the sequence UGCCAUAGUAUAUUGGUACGUGCUUUUUGACAUGAGGAUCACCCAUGUCCUCGUCAUAUGCGCAGUCCGUAGACUGC (puzzle: Sensor for hsa-mir-208a) with its measured apparent KD of MS2 coat protein.
Out: 234

In: Specify measured apparent KD of MS2 coat protein for UAACAACAUAUAGAACAAGCGUGCUCGUCACAUGAGGAUCACCCAUGUCUAAGCGCUGUACCUACAUCCUCAGCGCC [Raononbeen] (puzzle: Sensor for hsa-mir-208a) .
Out: 29.2

In: Please list apparent KD of MS2 coat protein recorded for the sequence GACAUUCUAUCUCAGGAUAUCAUGUCAAAGACAUGAGGAUCACCCAUGUACCAGGAAACUGGUUAUGAGAAGGGAGAUAGAAUGG [Mat - Same State 2 - Mod - D47] (puzzle: Same State 2)
Out: 119

In: Note down apparent KD of MS2 coat protein recorded for AGGAUAACACAUGAGGAUCACCCAUGUAUUAUUAUUACAAGCUUUUUGCUCGUUUUUAAUAAUACAUGUGUUAUUUU [Default title] (puzzle: Sensor for hsa-mir-208a version 2)
Out: 88.7

====

# System: K4 kissing-loop RNA reporter;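 further: bound reporter read as fluorescence of individual clusters on recovered sequencing chips by microscopy, with normalized cluster intensities fitted with a binding model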
# assayName: apparent KD of K4 kissing-loop reporter; higher = weaker reporter binding
# conditionInfo: Eterna round: R107; input ligand: theophylline 20 uM
measuredAttribute: apparent KD of K4 kissing-loop reporter (µM)
Quick reminder: number only, in µM, skip the unit.

Some sequences with known apparent KD of K4 kissing-loop reporter results, for comparison:
GGUAGCAUGGCGGCCGCCACUCGCUAGUGAUGUUAGCGGGAUGAGACAAAGGACAUAACUUUAUCGAGGACCGGGCCAUGCUACC; 0.0622
UAUUAAUUGUCAGGAUAUCGAAAUCGAGUGAUGUUCGUAUAUCGACGAUAGUCGAUAUUAUUUAUACGAGAAGGGACAUUAUUUA [JR_SSFMNB_Sub003]; 0.615
CGAGUGAUGUUCGAAGAGUUGUUAAGCGAUACCAGCUAGGAAACUGGCCCUUGGCAGCGUAAUAAGUAAAUAAAUAAAUGAUCAC [whbob_Ex_Theo_A_th63]; 0.486

In: Complete the entry with apparent KD of K4 kissing-loop reporter for UGGCGAGUGAUGUUCGUUGUUGUUGUGUGUCGAGGACCGGUACGGCCGCCACUCGAGUUGGUUGUUGUUGUUGCUGUUGUUGCUG [#04 K4 Tryptophan A Same State]
Out: 0.131

In: Identify apparent KD of K4 kissing-loop reporter associated with the sequence CGUAGCAGACGAAGGAGCGGCUACCUGAAUCAGGGUGAUGCCUGAGUGAUGUUCAGGUAAAGCCAGGUAGGUCGCGUCUGCUACG [Arg B Ex t9a]
Out: 0.235

In: Identify the reported apparent KD of K4 kissing-loop reporter for the following entry. UUAGCAGUAUACUGCAAGACCUAUACUGAUACCAGAGCCUAUAGGCUCCCUUGGCAGCGGAUCGAGUGAUGUUCGUAAGGUCAUU [AK4.3 SS Theophylline A]
Out: 0.682

In: Report apparent KD of K4 kissing-loop reporter, nothing else, for this sequence: AGAUUCGACACGGCCGCCACUCGUGGUGGAUUACCGAGUGUCGAAGUUGAGUGAUGUUCAAGUACGAGGACCGGGUGUUGAGUCU [KL-XTryp-B9 #analogue]
Out: 0.163

In: Please report the measured apparent KD of K4 kissing-loop reporter for AUUUUUUUGUCAGGAUAUUAGUAUGCAUUUAGUUUGUUAGUGAUGUUGAUAUUUUGUUUAUGUAUUUAAGAAGGGAUUUAGCGGU [iiikmullin]
Out: 0.34

In: Return apparent KD of K4 kissing-loop reporter for the following sequence: CAUACGCAUGGAGGAUAUGAGAUUUCUCAUAUUAUUGCUUAUUCUCAGUGAUGUUGGGAUUUAAGCUCAGAAGGCCAUGUGUAUG [Ex FMN B 10]
Out: 0.0942
